Source listed as patent US20040077715A1.

Test system: cultured melanocytes
Experiment: Power to inhibit the synthesis of melanin with regard to cultured melanocytes
Type: cell-based
Settings: concentration of 0.00035%, 8 independent tests
Inhibition of the synthesis of melanin overview

{"Compound": "C[S+]([O-])CCCCN=C=S (stereo not shown) [Sulforaphane]", "Display unit": "%", "Inhibition of the synthesis of melanin": 26.22}
{"Compound": "Oc1ccc(O)cc1 [Hydroquinone]", "Display unit": "%", "Inhibition of the synthesis of melanin": 42}
{"Compound": "O=c1cc(CO)occ1O [Kojic acid, kojic acid, reference compound]", "Display unit": "%", "Inhibition of the synthesis of melanin": 1}
{"Compound": "O=C(N=C=S)c1ccccc1 [Benzoyl isothiocyanate]", "Display unit": "%", "Inhibition of the synthesis of melanin": 9.5}
